system: antibodies in sera from SARS patients (sera 1a, 1b, 2, 6, 37, 62, London, SARS-yellow, SARS-green); format: binding, human
READOUT KIND: Binding of serum 2 to linear peptides of protein X2

sequence_record=TQSTALQELLIQQWI result=0.3
sequence_record=LKVTAFQHQNSKKTT result=0.3
sequence_record=LQTLVLKMLHSSSLT result=0.5
sequence_record=TTVYHITVSQIQLSL result=0.5
sequence_record=VVILRIGTQVLKTMS result=0.5
sequence_record=LKTHRMCKYTQSTAL result=0.5
sequence_record=HITMTTVYHITVSQI result=0.5
sequence_record=LSLLKVTAFQHQNSK result=0.1
sequence_record=MCKYTQSTALQELLI result=0.6
sequence_record=YTQSTALQELLIQQW result=0.4
sequence_record=SLHKLLQTLVLKMLH result=0.3
sequence_record=LVLKMLHSSSLTSLL result=0.3
sequence_record=MSLYMAISPKFTTSL result=0.4
sequence_record=VLKMLHSSSLTSLLK result=0.5
sequence_record=VYHITVSQIQLSLLK result=0.5
sequence_record=KFTTSLSLHKLLQTL result=0.4
sequence_record=THITMTTVYHITVSQ result=0.4

* * *

system: antibodies in sera from SARS patients (sera 1a, 1b, 2, 6, 37, 62, London, SARS-yellow, SARS-green); assay type: binding, human
Binding of serum 62 to looped/cyclic peptides of protein X1 of SARS-CoV Urbani listing for selected sequences.
READOUT KIND: Binding of serum 62 to looped/cyclic peptides of protein X1 of SARS-CoV Urbani

sequence_record=YQLESTQITTDTGIE result=0.3
sequence_record=IDGSSGVANPAMDPI result=0.6
sequence_record=TDTGIENATFFIFNK result=0.7
sequence_record=CIPYNSVTDTIVVTE result=0.5
sequence_record=ENATFFIFNKLVKDP result=0.5
sequence_record=VKDYVVVHGYFTEVY result=0.5
sequence_record=PPNVQIHTIDGSSGV result=0.5
sequence_record=HGYFTEVYYQLESTQ result=0.5
sequence_record=TTDTGIENATFFIFN result=0.9

* * *

system: antibodies in sera from SARS patients (sera 1a, 1b, 2, 6, 37, 62, London, SARS-yellow, SARS-green); assay type: binding, human
READOUT KIND: Binding of serum 1b to looped/cyclic peptides of protein X2 of SARS-CoV Urbani

sequence_record=QTLVLKMLHSSSLTS result=0.4
sequence_record=MLHSSSLTSLLKTHR result=0.5
sequence_record=SLTSLLKTHRMCKYT result=0.3
sequence_record=TQSTALQELLIQQWI result=0.5
sequence_record=YHITVSQIQLSLLKV result=0.4
sequence_record=YMAISPKFTTSLSLH result=0.6
sequence_record=KMLHSSSLTSLLKTH result=0.4
sequence_record=MCKYTQSTALQELLI result=0.6
sequence_record=RLLACLCKHKKVSTN result=0.2
sequence_record=LLIQQWIQFMMSRRR result=0.5
sequence_record=KFTTSLSLHKLLQTL result=0.4
sequence_record=LSLLKVTAFQHQNSK result=0.2
sequence_record=LYMAISPKFTTSLSL result=0.5
sequence_record=YTQSTALQELLIQQW result=0.5
sequence_record=KHKKVSTNLCTHSFR result=0.0
sequence_record=LHKLLQTLVLKMLHS result=0.5
sequence_record=TMTTVYHITVSQIQL result=0.4
sequence_record=CKHKKVSTNLCTHSF result=0.7
sequence_record=TMSLYMAISPKFTTS result=0.6
sequence_record=LTSLLKTHRMCKYTQ result=0.3
sequence_record=LQTLVLKMLHSSSLT result=0.4
sequence_record=SRRRLLACLCKHKKV result=0.2
sequence_record=LKTHRMCKYTQSTAL result=0.6
sequence_record=ACLCKHKKVSTNLCT result=0.3
sequence_record=LKVTAFQHQNSKKTT result=0.2
sequence_record=VYHITVSQIQLSLLK result=0.2
